Let's look at some compounds and their measured IC50.
EXPERIMENTAL TARGET: USP25 (USP25-His6, Boston Biochem E-546) (Homo sapiens)
Construct: His6; purchased Boston Biochem E-546
Sequence (Q9UHP3 1-1055): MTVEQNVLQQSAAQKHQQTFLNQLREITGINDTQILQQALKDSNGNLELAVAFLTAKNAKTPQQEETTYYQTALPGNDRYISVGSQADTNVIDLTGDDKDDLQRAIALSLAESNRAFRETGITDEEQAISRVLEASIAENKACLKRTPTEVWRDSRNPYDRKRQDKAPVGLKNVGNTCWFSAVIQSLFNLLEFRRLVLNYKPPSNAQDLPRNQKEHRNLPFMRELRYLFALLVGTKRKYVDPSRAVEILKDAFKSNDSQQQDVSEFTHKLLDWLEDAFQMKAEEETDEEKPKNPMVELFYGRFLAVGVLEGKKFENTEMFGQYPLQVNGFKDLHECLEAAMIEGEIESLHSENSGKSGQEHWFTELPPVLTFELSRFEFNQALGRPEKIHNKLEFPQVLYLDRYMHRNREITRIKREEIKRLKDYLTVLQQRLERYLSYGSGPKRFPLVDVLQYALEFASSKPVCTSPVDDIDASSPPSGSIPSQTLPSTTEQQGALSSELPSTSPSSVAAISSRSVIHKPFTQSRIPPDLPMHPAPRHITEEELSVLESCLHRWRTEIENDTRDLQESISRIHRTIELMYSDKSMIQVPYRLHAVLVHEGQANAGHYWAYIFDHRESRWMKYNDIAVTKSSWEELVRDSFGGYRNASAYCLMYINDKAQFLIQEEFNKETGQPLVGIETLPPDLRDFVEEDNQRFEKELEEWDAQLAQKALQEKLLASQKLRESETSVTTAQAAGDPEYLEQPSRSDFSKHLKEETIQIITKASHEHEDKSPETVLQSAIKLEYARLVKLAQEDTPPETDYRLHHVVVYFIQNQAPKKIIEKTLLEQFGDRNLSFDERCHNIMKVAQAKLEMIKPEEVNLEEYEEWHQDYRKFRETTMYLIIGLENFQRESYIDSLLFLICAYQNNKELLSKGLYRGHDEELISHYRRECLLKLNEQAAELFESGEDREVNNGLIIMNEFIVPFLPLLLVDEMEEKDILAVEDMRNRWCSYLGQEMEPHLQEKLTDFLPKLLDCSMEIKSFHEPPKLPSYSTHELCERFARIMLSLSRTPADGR
EXPERIMENT DESCRIPTION: Ubiquitin-Rhodamine 110 Assay for USP25 Activity, Example A-2
Assay type: biochemical
CONDITION DESCRIPTION: Ubiquitin-Rhodamine 110 assay, Example A-2; read-out: USP25 A-2 IC50 range
PROPERTY LABEL: IC50

[[record]]
compound = "CO[C@@H]1CN(c2cc3c(cc2F)C[C@@H](NC(=O)c2sc4nc(C)ccc4c2N)CO3)C[C@H]1N"
result = "200 to 2000 nM"

[[record]]
compound = "Cc1ccc2c(N)c(C(=O)N[C@@H]3COc4cc(N5CCNCC5)ccc4[C@@H]3C)sc2n1 (single isomer, unassigned)"
result = "> 2000 nM"

[[record]]
compound = "Cc1cc(C(F)F)c2c(N)c(C(=O)N[C@H]3COc4cc(N5CC6CNCC(C5)O6)ccc4C3)sc2n1"
result = "1 to 50 nM"

[[record]]
compound = "COC[C@H]1CN(c2ccc3c(n2)CC[C@H](NC(=O)c2sc4nc(C)cnc4c2N)C3)C[C@H]1N"
result = "200 to 2000 nM"

[[record]]
compound = "O=C(N[C@H]1COc2cc(N3CC4CCC(C3)N4)ccc2C1)c1cnc2c(c1)[C@@H]1C[C@@H]1CN2"
result = "50 to 200 nM"

[[record]]
compound = "CO[C@H]1CN(c2cc(F)c3c(c2C#N)OC[C@H](NC(=O)c2sc4nc(C)ccc4c2N)C3)C[C@@H]1N"
result = "> 2000 nM"

[[record]]
compound = "Cc1ccc2c(N)c(C(=O)N[C@H]3CCc4nc(N5C[C@H](N)[C@]6(CCCO6)C5)ccc4C3)sc2n1"
result = "> 2000 nM"

